system: Male Sprague Dawley rats; assay: Maximum tolerated dose (MTD) in male Sprague Dawley rats; format: in vivo, rat; settings: oral, daily, 0.5, 5 and 10 mg per kg for twelve days
Parameter: mortality

Compound: O=P(O)(O)c1ccccc1OCCCl
Parameter: mortality
Result: No death

Compound: Cc1csc(Nc2ccc([N+](=O)[O-])cc2)[n+]1CCC(O)(P(=O)(O)O)P(=O)(O)O
Parameter: mortality
Result: No death

Compound: C=C(c1ccccc1)P(=O)(O)O
Parameter: mortality
Result: No death

Compound: O=P(O)(O)/C=C/c1ccccc1
Parameter: mortality
Result: No death

Compound: O=P(O)(O)c1c(Cl)c(Cl)nc(Cl)c1Cl
Parameter: mortality
Result: No death

Compound: O=P(O)(O)c1ccccc1OCCCOc1ccccc1P(=O)(O)O
Parameter: mortality
Result: No death

Compound: O=P(O)(OC(c1ccccc1)C(F)(F)C(F)(F)C(F)(F)F)c1ccccc1 (stereo not shown)
Parameter: mortality
Result: No death

Reference source for all entries: patent US9198923B2
